Listing: ED50 of selected compounds
- Tested on: pressor reaction of angiotensin II
- experiment: Inhibition of pressor reaction of angiotensin II on anesthetized rat (Wistar Kyoto) having blocked ganglions
- Assay type: in vivo
- conditionsUsed: iv, 0.05 h, ganglion-blocked Wistar Kyoto rat, i.v., 3 min after administration, read-out: Dose necessary for shifting about doubled shift of pressor reaction of angiotensin toward right (ED50)

- chemicalString: "CCCc1nc2c(C)c(Cl)cnc2n1Cc1ccc(-c2ccccc2-c2nnn[nH]2)cc1"
  assayEndpoint: "ED50"
  reading: "0.32 mg/kg"
- chemicalString: "CCc1nc2cc(Br)cnc2n1Cc1ccc(-c2ccccc2-c2nnn[nH]2)cc1"
  assayEndpoint: "ED50"
  reading: "1.57 mg/kg"
- chemicalString: "CCOc1nc2c(C)ccnc2n1Cc1ccc(-c2ccccc2-c2nnn[nH]2)cc1"
  assayEndpoint: "ED50"
  reading: "0.0084 mg/kg"
- chemicalString: "CCc1nc2ccc(Cl)nc2n1Cc1ccc(-c2ccccc2-c2nnn[nH]2)cc1"
  assayEndpoint: "ED50"
  reading: "0.35 mg/kg"
- chemicalString: "Cc1ccnc2c1nc(C1CC1)n2Cc1ccc(-c2cc(Cl)ccc2C(=O)O)cc1"
  assayEndpoint: "ED50"
  reading: "0.06 mg/kg"

Problem: Provide ED50 value for the following compound: Cc1ccnc2c1nc(C(C)C)n2Cc1ccc(-c2ccccc2-c2nnn[nH]2)cc1
Solution: 0.42 mg/kg

Problem: Provide ED50 value for the following compound: CCOc1nc2c(C)cc(C)nc2n1Cc1ccc(-c2ccccc2C(=O)O)cc1
Solution: 0.018 mg/kg

Problem: Provide ED50 value for the following compound: CCCc1nc2cccnc2n1Cc1ccc(-c2ccccc2-c2nn[nH]n2)cc1
Solution: 0.15 mg/kg

Problem: Provide ED50 value for the following compound: CCCc1nc2c(C)cc(C)nc2n1Cc1ccc(-c2ccccc2C(=O)O)cc1
Solution: 0.08 mg/kg

Problem: Provide ED50 value for the following compound: CCc1nc2c(C)ccnc2n1Cc1ccc(-c2ccccc2C(=O)O)cc1
Solution: 0.29 mg/kg
